Biological target: T1, recombinant human GARP-proTGFβ1 complex (Homo sapiens, UniProt P01137)
T1 construct: made in house
T1 sequence (P01137 30-390): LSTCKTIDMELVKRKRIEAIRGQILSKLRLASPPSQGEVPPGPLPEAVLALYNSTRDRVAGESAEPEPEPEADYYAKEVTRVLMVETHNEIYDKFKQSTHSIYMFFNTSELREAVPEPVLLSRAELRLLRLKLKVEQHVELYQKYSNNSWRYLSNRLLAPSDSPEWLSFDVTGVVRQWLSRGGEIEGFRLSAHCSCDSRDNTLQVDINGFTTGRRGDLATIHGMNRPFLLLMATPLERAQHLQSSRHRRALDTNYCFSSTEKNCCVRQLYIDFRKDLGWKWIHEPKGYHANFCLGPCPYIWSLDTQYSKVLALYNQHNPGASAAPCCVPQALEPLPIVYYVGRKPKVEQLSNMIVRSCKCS
T1 sequence (Q14392 20-627 partner limits assumed): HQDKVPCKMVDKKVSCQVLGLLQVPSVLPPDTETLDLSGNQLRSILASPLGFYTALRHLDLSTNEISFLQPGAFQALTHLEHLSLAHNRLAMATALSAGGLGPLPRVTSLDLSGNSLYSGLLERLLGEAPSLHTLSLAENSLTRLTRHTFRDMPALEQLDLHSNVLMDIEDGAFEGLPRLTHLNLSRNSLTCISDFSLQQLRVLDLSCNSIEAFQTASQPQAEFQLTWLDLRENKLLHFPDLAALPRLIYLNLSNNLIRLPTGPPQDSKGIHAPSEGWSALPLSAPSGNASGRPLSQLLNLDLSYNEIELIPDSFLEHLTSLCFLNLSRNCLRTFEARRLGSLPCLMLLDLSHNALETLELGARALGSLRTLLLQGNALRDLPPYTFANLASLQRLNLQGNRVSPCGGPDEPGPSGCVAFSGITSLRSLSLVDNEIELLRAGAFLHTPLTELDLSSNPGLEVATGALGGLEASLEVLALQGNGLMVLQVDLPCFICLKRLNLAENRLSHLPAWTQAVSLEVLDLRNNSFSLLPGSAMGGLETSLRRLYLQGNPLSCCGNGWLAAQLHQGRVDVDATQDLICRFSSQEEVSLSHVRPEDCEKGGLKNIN
Assay: Octet (Biolayer Interferometry) in vitro kinetic binding
Conditions: in M
measured metric: (E) hGARP, Cell-associated proTGFb1 (KD)
// print number alone

Take a look at these entries with their results.
Ab15: monoclonal antibody; VH SEQ ID NO: 245, VL SEQ ID NO: 241 (antibody, V domains shown) VH: EVQLVESGGGVVQPGRSLRLSCAASGFTFSDYAMVWVRQAPGKGLEWVSAISGSGFTTYYADSVKGRFTISRDNSKNTLYLQMNSLRAEDTAVYYCARVSSGHWDFDYWGQGTLVTVSS VL: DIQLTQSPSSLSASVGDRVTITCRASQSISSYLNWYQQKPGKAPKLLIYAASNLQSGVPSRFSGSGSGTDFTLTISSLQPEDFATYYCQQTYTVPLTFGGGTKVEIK : 7.01E−09
Ab28: monoclonal antibody; VH SEQ ID NO: 136, VL SEQ ID NO: 15 (antibody, V domains shown) VH: EVQLVESGGGLVQPGGSLRLSCAASGFTFSSFSMDWVRQAPGKGLEWVSYISPDASTIYYADSVKGRFTISRDNAKNSLYLQMNSLRAEDTAVYYCVRGVLDYGDMLDPWGQGTLVTVSS VL: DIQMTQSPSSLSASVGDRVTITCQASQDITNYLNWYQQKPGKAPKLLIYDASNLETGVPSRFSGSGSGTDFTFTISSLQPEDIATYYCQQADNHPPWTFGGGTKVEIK : 7.97E−10
Ab23: monoclonal antibody; VH SEQ ID NO: 131, VL SEQ ID NO: 15 (antibody, V domains shown) VH: EVQLVESGGGLVQPGGSLRLSCAASGFTFSSFSMNWVRQAPGKGLEWVSYISPSADTIYYADSVKGRFTISRDNAKNTLYLQMNSLRAEDTAVYYCARGVLDYGDMLDPWGQGTLVTVSS VL: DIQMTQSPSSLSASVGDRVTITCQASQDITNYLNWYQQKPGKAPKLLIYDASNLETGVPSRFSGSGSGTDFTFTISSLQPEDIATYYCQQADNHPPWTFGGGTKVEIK : 1.34E−09
Ab33: monoclonal antibody; VH SEQ ID NO: 141, VL SEQ ID NO: 15 (antibody, V domains shown) VH: EVQLVESGGGLVQPGGSLRLSCAASGFTFSSFSMNWVRQAPGKGLEWVSYISPSADTIYYADSVKGRFTISRDNAKNTLYLQMNSLRAEDTAVYYCAHGVLDYGDMLDPWGQGTLVTVSS VL: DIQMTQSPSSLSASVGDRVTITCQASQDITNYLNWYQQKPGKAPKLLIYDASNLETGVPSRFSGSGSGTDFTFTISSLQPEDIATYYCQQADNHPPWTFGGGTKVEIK : 2.65E−10

Moving on to the next molecule.
Query :: What measured (E) hGARP, Cell-associated proTGFb1 (KD) goes with Ab19: monoclonal antibody; VH SEQ ID NO: 250, VL SEQ ID NO: 241 (antibody, V domains shown) VH: QVQLVESGGGVVQPGRSLRLSCAASGFTFSSFAMTWVRQAPGKGLEWVSAISGSGAATYFADSVKGRFTISRDNSKNTLYLQMNSLRAEDTAVYYCARVSSGHWDFDEWGQGTLVTVSS VL: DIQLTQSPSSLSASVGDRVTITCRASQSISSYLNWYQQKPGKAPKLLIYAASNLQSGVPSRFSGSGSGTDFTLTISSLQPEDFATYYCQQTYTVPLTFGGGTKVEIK ?
Result :: 1.12E−08
